// provenance: ChEMBL document CHEMBL2218924

# Lookup of reported residual activity keyed by entry
tested.on: Insulin-like growth factor 1 receptor (Homo sapiens)
cond: at 10 µM
Report the figure in % without appending any unit label.

structure=COc1ccc(CNc2nc(N(CCO)CCO)nc3c2ncn3C(C)C)cc1 recorded_measurement=129
structure=c1ccc(-c2n[nH]c3c2oc2ccccc23)cc1 recorded_measurement=139

Value of residual activity reported for the compound `COc1cccc(-c2cc(=O)c3ccccc3o2)c1N` is 127

Form field residual activity, entry `CC(C)n1cnc2/c(=N/c3cccc(Cl)c3)nc(NCCO)[nH]c21` : 105

----------
tested.on: Tyrosine-protein kinase JAK2 (Homo sapiens)
cond: at 10 µM
observed.property: residual activity (%)
Give the value in % but do not write % after it.

structure=O=[N+]([O-])c1ccc(-c2nc(-c3ccc(F)cc3)c(-c3ccncc3)[nH]2)cc1 recorded_measurement=101
structure=O=C1NC(=O)c2cc(Nc3ccc(F)cc3)c(Nc3ccc(F)cc3)cc21 recorded_measurement=119
structure=CC(=O)c1ccc(N2CCOCC2)cc1O recorded_measurement=96
structure=c1ccc2c(-c3ccncc3)c[nH]c2c1 recorded_measurement=101

Now turn to the next compound.
So for `CCC(=O)Nc1ccc2ncnc(Nc3cccc(Br)c3)c2c1` , the logged residual activity turned out to be 107

----------
tested.on: Protein kinase C iota type (Homo sapiens)
cond: at 1 µM
observed.property: residual activity (%)
# value in %; strip the unit string

structure=O=c1c2ccccc2[nH]c(=S)n1CCN1CCC(=C(c2ccc(F)cc2)c2ccc(F)cc2)CC1 recorded_measurement=109
structure=Cc1ccc(S(=O)(=O)/C=C/C#N)cc1 recorded_measurement=109
structure=CC(C)n1cnc2/c(=N/c3cccc(Cl)c3)nc(NCCO)[nH]c21 recorded_measurement=110

For this compound ( `COc1cc2ncnc(Nc3ccc(Oc4ccccc4)cc3)c2cc1OC` ), measured residual activity is 90

Per the records, this compound ( `CC(=O)O/N=C1\C(=C2\C(=O)Nc3cc(Br)ccc32)Nc2ccccc21` ) has residual activity equal to 104

----------
tested.on: Tyrosine-protein kinase Lck (Homo sapiens)
cond: at 1 µM
Below, each entry is listed with its recorded residual activity.
Supply the numeric figure in %, leaving out any unit text.

Some solved cases for reference:
structure=Oc1c2ccccc2c2c3c(cccc13)N=N2 recorded_measurement=89
structure=COc1cc2ncnc(N3CCN(C(=O)Nc4ccc(Oc5ccccc5)cc4)CC3)c2cc1OC recorded_measurement=92

Tyrosine-protein kinase Lck (Homo sapiens) data for `COc1cc2ncnc(Nc3ccc(Oc4ccccc4)cc3)c2cc1OC` ; its residual activity: -2

----------
tested.on: Serine/threonine-protein kinase 4 (Homo sapiens)
cond: at 1 µM
Parameter threshold = 90%. Response is YES when residual activity meets or exceeds it, else NO.

Check out these entries, answers already filled in.
structure=Cc1nc2cc3nc(-c4cccs4)cnc3cc2n1C tested_on="Serine/threonine-protein kinase 4 (Homo sapiens)" answer_label=YES
structure=O=Nc1c(-c2c(O)[nH]c3ccccc23)[nH]c2ccccc12 tested_on="Serine/threonine-protein kinase 4 (Homo sapiens)" answer_label=NO
structure=N#Cc1cnc2cnc(NCc3cccnc3)cc2c1Nc1ccc(F)c(Cl)c1 tested_on="Serine/threonine-protein kinase 4 (Homo sapiens)" answer_label=YES

Could you tell me if the measured residual activity of `COc1cc2ncnc(N3CCN(C(=O)Nc4ccc(Oc5ccccc5)cc4)CC3)c2cc1OC` reaches 90% or more? NO

Determine whether this compound has residual activity no lower than 90%: `COc1ccc(OC)c2c(=S)c3ccccc3[nH]c12` NO

Identify whether the reported residual activity of the following compound is 90% or greater: `Cc1cncc2cccc(S(=O)(=O)N3CCCN(C(=O)CN)C[C@H]3C)c12` NO
